target: SARS-CoV-2 Spike N439K on pseudotyped virus (SARS-CoV-2, UniProt P0DTC2 14-1273); assay: cell-based or functional assay
metric-name: Potency change vs WT PsV (fold)
Numeric answer only, unit fold assumed.

I'd like to know its Potency change vs WT PsV. The binder in question is mAb 46 (antibody, V domains shown) VH: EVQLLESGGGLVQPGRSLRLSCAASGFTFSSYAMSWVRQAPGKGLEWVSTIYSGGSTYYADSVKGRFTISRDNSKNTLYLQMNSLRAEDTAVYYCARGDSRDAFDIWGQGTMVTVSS VL: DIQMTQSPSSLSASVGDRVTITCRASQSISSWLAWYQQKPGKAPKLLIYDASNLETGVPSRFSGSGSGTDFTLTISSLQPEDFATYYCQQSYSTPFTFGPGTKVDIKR
4.1
